Data provenance is the supplement of paper PMC10567573.

B1: ZNF649 (parent)
chain: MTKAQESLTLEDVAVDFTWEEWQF

Variants of: B1
Assay: protein stability index of a GFP-peptide fusion (GPS, HEK-293T) (PSI 1-6); higher = more stable;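 also: lentivirally expressed fusions sorted by FACS into six bins by GFP to DsRed ratio, PSI derived from sequencing read proportions per bin multiplied by bin number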
Details: c terminus: a fixed tail appended
attribute-measured: protein stability index

Answered examples (3):
[[record]]
change = "E20A"
attribute_measured = "protein stability index"
result = 2.48

[[record]]
change = "V15Y"
attribute_measured = "protein stability index"
result = 3.91

[[record]]
change = "L8T"
attribute_measured = "protein stability index"
result = 3.93


Which protein stability index is reported for this variant? E21Y 1.95

# query: protein stability index of entry F24V 3.77

protein stability index lookup needed for Q23C , thanks. 2.26

Entry under review: Q5L . Reported protein stability index? 2.97
